- Target Or Test System: Histone-lysine N-methyltransferase EHMT2 (Homo sapiens) (UniProt Q96KQ7)
- Sequence (Q96KQ7 913-1193 limits assumed): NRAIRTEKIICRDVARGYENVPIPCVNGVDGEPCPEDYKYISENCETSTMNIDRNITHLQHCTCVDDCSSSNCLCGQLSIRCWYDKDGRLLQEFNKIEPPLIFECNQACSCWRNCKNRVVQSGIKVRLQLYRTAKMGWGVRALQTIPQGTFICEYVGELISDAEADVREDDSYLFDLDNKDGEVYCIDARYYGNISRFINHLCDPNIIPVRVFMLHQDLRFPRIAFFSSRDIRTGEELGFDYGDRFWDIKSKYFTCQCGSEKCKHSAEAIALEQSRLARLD
- Test Details: qHTS Assay for Inhibitors of Histone Lysine Methyltransferase G9a; further: nearly all actives have a fitted effect of over 75% in size
- Conditions Used: G9a H3K9 monomethylation, AlphaScreen, 2 h; series mostly up to 59 µM
Screen size: about 350,000 compounds; about 31,000 (8.9%) were called active. Not shown: some 15% with an inconclusive outcome. The call rests on the fitted dose curve; in most records, active means well fitted inhibition curve with a large enough effect; inconclusive means small, poorly fitted or top-dose-only effect; inactive means no such curve, though single readings can be large or run the other way. The full list was thinned out, with actives kept by preference.
Classes used: label 1 = active, label 0 = inactive

In [3]: df
Out[3]:
                                    compound  qualitative_label
 0  CCN(CC(=O)Nc1cccc(S(N)(=O)=O)c1)Cc1nc2ccccc2c(=O)[nH]1            label 0
 1  Cc1ccc(NC(=O)c2cc(-c3ccc(C)o3)nc3ccccc23)nc1            label 1
 2  Cc1ccc(-n2c(SCC(=O)N/N=C/C=C/c3ccccc3[N+](=O)[O-])nc3ccccc3c2=O)cc1            label 0
 3  Cc1csc2nc(COc3ccc(NC(=O)COc4ccccc4)cc3)cc(=O)n12            label 0
 4  CCOC(=O)C1=C(C)NC(=O)NC1c1ccccc1 (stereo unspecified)            label 0
 5  COc1ccc(NC(=O)CN(C)C(=O)c2cc(-c3ccc(C)o3)nc3ccccc23)cc1            label 1
 6  Cc1csc2nc(COC(=O)c3ccccc3NC(=O)c3ccccc3Cl)cc(=O)n12            label 0
 7  COc1cccc(NC(=O)C2CCN(c3cc(C)nc4c(-c5ccc(Cl)cc5)c(C)nn34)CC2)c1            label 0
 8  COc1ccc(NC(=O)CN(C)C(=O)Cc2coc3cc(C)c(C)cc23)cc1            label 1
 9  Cc1cccc2c1-c1sc(C(=O)Nc3ccc(F)cc3F)cc1CO2            label 0
10  Cc1cc(C(=O)CCC(=O)NNC(=O)c2ccccc2O)c(C)s1            label 0
11  O=C(CSc1nc2ccccc2[nH]1)N/N=C/C=C\c1ccccc1[N+](=O)[O-]            label 0
12  O=C(Cn1cnc2ccccc2c1=O)Nc1cccc(S(=O)(=O)N2CCCCC2)c1            label 0
13           O=c1cc(CCl)nc2scc(-c3ccccc3)n12            label 1
14  COc1ccc(NC(=O)CN(C)C(=O)c2n[nH]c3ccccc23)cc1            label 0
15  CC(=O)c1cccc(Nc2ccc3cc(S(=O)(=O)N4CCC(C)CC4)ccc3n2)c1            label 0
16  O=C(N=C1SC2CS(=O)(=O)CC2N1c1cc(Cl)ccc1Cl)C1CC1 (stereo unspecified)            label 0
17  CCN(CC(=O)Nc1ccc(Cl)c(S(=O)(=O)N(C)C)c1)Cc1nc2ccccc2c(=O)[nH]1            label 1
18  O=C(NCCc1ccc(C(F)(F)F)cc1)c1ccc2c(c1)OCO2            label 0
19     COc1ccc(NC(=O)CN(C)C(=O)CC2CCCCC2)cc1            label 0
20   N/C(=N\OC(=O)/C=C/c1ccccc1)c1ccc(Br)cc1            label 0
